Each record here notes measured IC50.
# target.under.test: Estrogen receptor (Homo sapiens); note: in other assays of this panel Not Active means under 50% inhibition at 10 µM
# Sequence (P03372 whole entry): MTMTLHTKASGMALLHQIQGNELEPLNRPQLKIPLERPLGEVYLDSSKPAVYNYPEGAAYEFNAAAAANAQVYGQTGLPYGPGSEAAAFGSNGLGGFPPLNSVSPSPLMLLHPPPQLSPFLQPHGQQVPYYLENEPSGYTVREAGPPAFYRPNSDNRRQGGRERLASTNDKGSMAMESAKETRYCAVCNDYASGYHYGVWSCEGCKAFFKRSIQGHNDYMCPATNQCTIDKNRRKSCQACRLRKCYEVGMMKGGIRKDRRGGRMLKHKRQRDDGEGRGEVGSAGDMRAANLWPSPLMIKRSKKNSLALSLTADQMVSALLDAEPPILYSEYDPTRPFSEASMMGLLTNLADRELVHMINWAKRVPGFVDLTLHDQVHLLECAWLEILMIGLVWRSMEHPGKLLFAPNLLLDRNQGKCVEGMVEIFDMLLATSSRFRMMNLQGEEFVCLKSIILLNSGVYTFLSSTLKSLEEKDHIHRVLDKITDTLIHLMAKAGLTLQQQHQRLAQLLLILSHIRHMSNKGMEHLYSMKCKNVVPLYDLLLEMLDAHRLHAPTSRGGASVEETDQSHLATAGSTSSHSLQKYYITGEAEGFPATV
# test.protocol: biochemical

compound | IC50, nM
C#C[C@]1(O)CC[C@H]2[C@@H]3CCc4cc(OC)ccc4[C@H]3CC[C@@]21C | 18
C[C@]12CC[C@@H]3c4ccc(OC(=O)c5ccccc5)cc4CC[C@H]3[C@@H]1CC[C@@H]2O [ESTRADIOL BENZOATE] | 65

* * *

# test.protocol: DRUGMATRIX: Atrial Natriuretic Factor (ANF) radioligand binding (ligand: [125I] ANF (rat))
# Type: cell membranes, Cavia porcellus, Dunkin-Hartley, Adrenal gland, Membrane
# measurement.context: Not Active = under 50% inhibition at 10 µM
Where a SMILES comes first, the peptide text is derived from it. Bridges are numbered along the chain shown (N, C = ends). [ ]: non-standard residue; d: D form. The star is where a group is joined. Threoninol(2S,3R) = C[C@@H](O)[C@H](CO)N*
attribute.measured: Ki

compound | value.reported
CCC1=C[C@@H]2CN(C1)Cc1c([nH]c3ccccc13)[C@@](C(=O)OC)(c1cc3c(cc1OC)N(C)[C@H]1[C@@](O)(C(=O)OC)[C@H](OC(C)=O)[C@]4(CC)C=CCN5CC[C@]31[C@@H]54)C2 | Not Active
CC(C)C[C@H](NC(=O)[C@@H](O)[C@H](N)Cc1ccccc1)C(=O)O | Not Active
C[C@@H](O)[C@H](CO)NC(=O)[C@@H]1CSSC[C@H](NC(=O)[C@H](N)Cc2ccccc2)C(=O)N[C@@H](Cc2ccccc2)C(=O)N[C@H](Cc2c[nH]c3ccccc23)C(=O)N[C@@H](CCCCN)C(=O)N[C@@H]([C@@H](C)O)C(=O)N1 (H-[dF]CF[dW]KTC-{Threoninol(2S,3R)}; disulfide 2-7) | Not Active
COC(=O)C1=C(C)NC(C)=C(C(=O)OCC(C)C)C1c1ccccc1[N+](=O)[O-] (configuration not stated) | Not Active
COc1ccc2[nH]c([S+]([O-])Cc3ncc(C)c(OC)c3C)nc2c1 (configuration not stated) | Not Active
CN(C)/N=N/c1[nH]cnc1C(N)=O | Not Active
C[C@]12CC[C@@H]3c4ccc(O)cc4CC[C@H]3[C@@H]1CC[C@@H]2O | Not Active

* * *

# test.protocol: DRUGMATRIX: GABAA, Flunitrazepam, Central radioligand binding (ligand: [3H] Flunitrazepam)
# Assay type: cell membranes, Rattus norvegicus, Wistar, Brain, Membrane
# measurement.context: Not Active = under 50% inhibition at 10 µM

compound | IC50
CC1(C)O[C@@H]2C[C@H]3[C@@H]4C[C@H](F)C5=CC(=O)C=C[C@]5(C)[C@@]4(F)[C@@H](O)C[C@]3(C)[C@]2(C(=O)CO)O1 [FLUOCINOLONE ACETONIDE] | Not Active
S=C=Nc1cccc2ccccc12 [1-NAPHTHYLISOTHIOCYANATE] | Not Active
CO[C@H]1/C=C/O[C@@]2(C)Oc3c(C)c(O)c4c(c3C2=O)C2=NC3(CCN(CC(C)C)CC3)NC2=C(NC(=O)/C(C)=C\C=C\[C@H](C)[C@H](O)[C@@H](C)[C@@H](O)[C@@H](C)[C@H](OC(C)=O)[C@@H]1C)C4=O [RIFABUTIN] | Not Active

* * *

# test.protocol: DRUGMATRIX: Sigma2 radioligand binding (ligand: [3H] Ifenprodil)
# Format: cell membranes, Rattus norvegicus, Wistar, Brain, Membrane
# measurement.context: Not Active = under 50% inhibition at 10 µM; read-out: IC50
attribute.measured: log10 IC50 (log10 of the value in nM)

molecule | log10 IC50
O=C(c1ccc(OCCN2CCCCC2)cc1)c1c(-c2ccc(O)cc2)sc2cc(O)ccc12 | 2.59
CCCCOc1ccc(OCCCN2CCOCC2)cc1 | 3.01
O=C1CC2(CCCC2)CC(=O)N1CCCCN1CCN(c2ncccn2)CC1 | 3.53
N=C(Nc1ccccc1)Nc1ccccc1 | 3.42
CC(=O)N1CCN(c2ccc(OCC3COC(Cn4ccnc4)(c4ccc(Cl)cc4Cl)O3)cc2)CC1 (stereo unspecified) | 4.20
OC(CCN1CCCCC1)(c1ccccc1)C1CCCCC1 (stereo unspecified) | 3.49

* * *

# test.protocol: DRUGMATRIX: GABAA, Chloride Channel, TBOB radioligand binding (ligand: [3H] TBOB)
# Format: cell membranes, Rattus norvegicus, Wistar, Cerebral cortex, Membrane
# measurement.context: Not Active = under 50% inhibition at 10 µM
Where a SMILES comes first, the peptide text is derived from it. Bridges are numbered along the chain shown (N, C = ends). [ ]: non-standard residue; d: D form. The star is where a group is joined. Threoninol(2S,3R) = C[C@@H](O)[C@H](CO)N*
attribute.measured: Ki

compound | value.reported
CCOC(=O)C1=C(C)NC(C)=C(C(=O)OC)C1c1cccc([N+](=O)[O-])c1 (stereo not given) | Not Active
COCCOC(=O)C1=C(C)NC(C)=C(C(=O)OC(C)C)C1c1cccc([N+](=O)[O-])c1 (stereo not given) | Not Active
S=C=Nc1cccc2ccccc12 [1-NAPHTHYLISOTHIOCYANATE] | Not Active
ClC(Cl)Cl [CHLOROFORM] | Not Active
CCOC(=O)[C@H](CCc1ccccc1)N[C@H]1CCc2ccccc2N(CC(=O)O)C1=O | Not Active
Cc1onc(-c2ccccc2)c1-c1ccc(S(N)(=O)=O)cc1 | Not Active
CN(C)/N=N/c1[nH]cnc1C(N)=O | Not Active
C[C@@H](O)[C@H](CO)NC(=O)[C@@H]1CSSC[C@H](NC(=O)[C@H](N)Cc2ccccc2)C(=O)N[C@@H](Cc2ccccc2)C(=O)N[C@H](Cc2c[nH]c3ccccc23)C(=O)N[C@@H](CCCCN)C(=O)N[C@@H]([C@@H](C)O)C(=O)N1 (H-[dF]CF[dW]KTC-{Threoninol(2S,3R)}; disulfide 2-7) | Not Active
O=S(=O)([O-])CCS.[Na+] | Not Active
CN1C(=O)COc2c(C(=O)NC3CN4CCC3CC4)cc(Cl)cc21 (stereo not given) | Not Active
CO[C@H]1/C=C/O[C@@]2(C)Oc3c(C)c(O)c4c(c3C2=O)C2=NC3(CCN(CC(C)C)CC3)NC2=C(NC(=O)/C(C)=C\C=C\[C@H](C)[C@H](O)[C@@H](C)[C@@H](O)[C@@H](C)[C@H](OC(C)=O)[C@@H]1C)C4=O | Not Active
CC1(C)O[C@@H]2C[C@H]3[C@@H]4C[C@H](F)C5=CC(=O)CC[C@]5(C)[C@H]4[C@@H](O)C[C@]3(C)[C@]2(C(=O)CO)O1 [FLURANDRENOLIDE] | Not Active
COc1ccc2[nH]c([S+]([O-])Cc3ncc(C)c(OC)c3C)nc2c1 (stereo not given) | Not Active
OC(CCN1CCCCC1)(c1ccccc1)C1CCCCC1 (stereo not given) | Not Active
CC(=O)Nc1cccc(O)c1 | Not Active
CCCCN1CCCCC1C(=O)Nc1c(C)cccc1C.Cl (stereo not given) [BUPIVACAINE HYDROCHLORIDE] | Not Active
CC(C)CC(N(C)C)C1(c2ccc(Cl)cc2)CCC1 (stereo not given) | Not Active
COc1cccc2c1C(=O)c1c(O)c3c(c(O)c1C2=O)C[C@@](O)(C(=O)CO)C[C@@H]3O[C@H]1C[C@H](N)[C@H](O)[C@H](C)O1 | Not Active
CC(=O)OCC(=O)[C@@]1(O)CC[C@H]2[C@@H]3CCC4=CC(=O)CC[C@]4(C)[C@H]3C(=O)C[C@@]21C [CORTISONE ACETATE] | Not Active
C[C@]1(Cn2ccnn2)[C@H](C(=O)O)N2C(=O)C[C@H]2S1(=O)=O | Not Active
CCCC(=O)Nc1ccc(OCC(O)CNC(C)C)c(C(C)=O)c1 (stereo not given) | Not Active
C[N+](C)(C)CCO.[Cl-] [CHOLINE CHLORIDE] | Not Active
N=C(N)NC(=O)c1nc(Cl)c(N)nc1N [AMILORIDE] | Not Active
Cc1nccn1CC1CCc2c(c3ccccc3n2C)C1=O (stereo not given) | Not Active
C[C@@H](N)[C@H]1CC[C@H](C(=O)Nc2ccncc2)CC1 | Not Active
CC(=O)Nc1ccc(O)cc1 | Not Active
O=C1CCC(N2C(=O)c3ccccc3C2=O)C(=O)N1 (stereo not given) [THALIDOMIDE] | Not Active
CCN(CC)CCOC(=O)c1ccc(N)cc1 | Not Active
CC(=O)Nc1c(I)c(NC(C)=O)c(I)c(C(=O)O)c1I | Not Active
CCc1c2c(nc3ccc(OC(=O)N4CCC(N5CCCCC5)CC4)cc13)-c1cc3c(c(=O)n1C2)COC(=O)[C@]3(O)CC | Not Active
COP(=O)(OC)OC=C(Cl)Cl | Not Active
C[C@H]1C[C@H]2[C@@H]3CCC4=CC(=O)C=C[C@]4(C)[C@@]3(Cl)[C@@H](O)C[C@]2(C)[C@@]1(O)C(=O)CO | Not Active
Cc1cc(=O)n(-c2ccccc2)n1C [ANTIPYRINE] | Not Active
CCCCOc1ccc(OCCCN2CCOCC2)cc1 | Not Active
CC(C)C[C@H](NC(=O)[C@@H](O)[C@H](N)Cc1ccccc1)C(=O)O | Not Active
